// data source = PubChem BioAssay (NCI)

- System: UACC-62 melanoma
- experimental details: NCI tumour cell line growth inhibition, 48 h

compound: COc1cc(OC)cc(Oc2nc3cc(N)cc(N)c3nc2-c2ccccc2)c1
GI50: 4.04 µM
--
compound: O=C(Cc1csc2nc(-c3ccc(Br)cc3)cn12)N/N=C/c1cc(Br)ccc1O
GI50: 10.4 µM
--
compound: C=C(C)[C@@H]1CC[C@]2(CNCCO)CC[C@]3(C)[C@H](CC[C@@H]4[C@@]5(C)CCC(N)[C@@](C)(CO)[C@@H]5CC[C@]43C)[C@@H]12 (stereo partly drawn)
GI50: 1.77 µM

* * *

- System: SK-OV-3 ovarian
- experimental details: NCI tumour cell line growth inhibition, 48 h
Item-by-item account of GI50

compound: O=C1OCC2=C1C(c1cccc(F)c1)c1cc3c(cc1N2CCO)CCC3 (stereo not given)
GI50: 0.844 µM
//
compound: Cn1nc(-c2cccs2)cc1/N=C(\N)C(C)(C#N)Cc1ccccc1 (stereo not given)
GI50: 44.8 µM
//
compound: CC(=O)OCC1OC(OC2=C(CC=C(C)C)C(=O)c3ccccc3C2=O)C(OC(C)=O)C(OC(C)=O)C1OC(C)=O (stereo not given)
GI50: 12.9 µM
//
compound: COc1cccc2c1C(CO)N1C(C#N)C3CC(C(=O)O)C(C1C2)N3C (stereo not given)
GI50: 2.6 µM
//
compound: COc1cc(/C=C2\CC3C4CCC5=CC(=O)CC[C@]5(C)C4CC[C@]3(C)C2=O)ccc1OCCCn1ccnc1 (stereo not given in full)
GI50: 15.7 µM
//
compound: O=c1c2cc(I)ccc2nc(-c2cccs2)n1-c1ccc(S(=O)(=O)Nc2nccs2)cc1
GI50: 66.6 µM
//
compound: CCOC(=O)c1ccc2c(c1)c1c(C)c3ccncc3c(C)c1n2C
GI50: 0.721 µM
//
compound: CC#Cc1nc2ccccc2c(=O)[nH]1
GI50: 41.7 µM
//
compound: C=C(C)[C@@H]1CC[C@]2(CNCCO)CC[C@]3(C)[C@H](CC[C@@H]4[C@@]5(C)CCC(N)[C@@](C)(CO)[C@@H]5CC[C@]43C)[C@@H]12 (stereo not given in full)
GI50: 1.95 µM
//
compound: CCC[CH2][Sn]([CH2]CCC)([O]C(=O)Cc1ccc(F)cc1)[O]C(=O)Cc1ccc(F)cc1
GI50: 2.93 µM

* * *

TGI for assorted compounds
- Tested on: OVCAR-8 ovarian
- experimental details: NCI tumour cell line growth inhibition, 48 h

compound structure: Cc1ccc(S(=O)(=O)O/N=C2\CCC\C2=C/c2ccccc2)cc1
comparison sign: >
TGI / µM: 100
--
compound structure: CON(C)C(=O)CCCO
comparison sign: >
TGI / µM: 100
--
compound structure: O=C1NC(=O)C(C(=O)C(=O)Nc2cccc(C(F)(F)F)c2)C(=O)N1
comparison sign: >
TGI / µM: 100
--
compound structure: O=C1c2cccc3cc4ccccc4c(c23)C(=O)N1CCNCCNCCNCCN1C(=O)c2cccc3cc4ccccc4c(c23)C1=O
comparison sign: =
TGI / µM: 0.735
--
compound structure: N#CC(C#N)=C/C=C(\Sc1ccc(F)c(Cl)c1)c1ccc(Cl)cc1
comparison sign: =
TGI / µM: 2.42
--
compound structure: CCCCC/C=C\C=C1\C(=O)C=C[C@@H]1C/C=C\CCCC(=O)O
comparison sign: =
TGI / µM: 3.73

* * *

Listing of recorded TGI by entry.
- Test system: SNB-19 CNS
- experimental details: NCI tumour cell line growth inhibition, 48 h
endpoint name: TGI

compound: Cn1cc(NC(=O)c2cc(NC(=O)c3cc(NC=O)cn3C)cn2C)cc1C(=O)NCCC(=N)N
value observed: > 100 µM

compound: COc1c(CC(=O)c2ccccc2)c2ccccc2n1C(C)=O
value observed: > 100 µM

compound: CCN(C1=CC(=O)NC2CCCCN12)c1ccccc1 (centres undefined)
value observed: > 100 µM

compound: COc1ccc2c(c1)O[C@@H]1c3ccc(OC)cc3OC[C@H]21
value observed: > 100 µM

compound: Nc1ncnc2oc(-c3cccs3)nc12
value observed: > 100 µM

compound: COC(=O)C1=C(C)N2CCOC2(C)C(C(=O)OC)C1c1ccc[nH]1 (centres undefined)
value observed: > 100 µM

compound: CC(C)(C)c1[nH]nc2c1C(c1cc3ccccc3[nH]c1=O)Nc1cc(C(=O)Nc3ccc(Cl)cc3)ccc1N2 (centres undefined)
value observed: 11.9 µM

compound: C[C@H](CCC(=O)NN)[C@H]1CC[C@H]2[C@@H]3CC[C@@H]4C[C@H](O)CC[C@]4(C)[C@H]3CC[C@]12C
value observed: > 100 µM

compound: Nc1nc[n+](Cc2ccccc2CCO)c2nc[nH]c12
value observed: > 100 µM

compound: CC12OC(=O)[C@@]3(O)CCC4C(C[C@H]5O[C@]56CC=CC(=O)[C@]46C)C45OC[C@H]6C(=O)O[C@@H]1C[C@@]6(C)[C@H](C4=O)C23O5 (some centres undefined)
value observed: 11.8 µM

compound: O=S(=O)(O)c1ccc(N=Nc2ccc(N=Nc3c(O)ccc4cc(S(=O)(=O)O)ccc34)cc2)cc1
value observed: > 100 µM

compound: C=C(Br)CN(C)CC(=C)Br
value observed: > 100 µM

compound: Cn1c(-c2ccc(/C=N/N=C/c3ccc(-c4c[n+]5ccccc5n4C)cc3)cc2)c[n+]2ccccc12
value observed: > 100 µM

compound: CN(C)CCCNC(=O)CCNC(=O)c1cc(NC(=O)c2cc(NC(=O)c3cc(NC(=O)CCCNC(=O)c4cc(NC(=O)c5cc(NC(=O)c6nccn6C)cn5C)cn4C)cn3C)cn2C)cn1C
value observed: > 100 µM

compound: Nc1nc2c(c3cnccc13)C(c1cccc(Br)c1)Cc1cnccc1-2 (centres undefined)
value observed: 15.2 µM

compound: COc1cc(/C=C/C(=O)c2cc(OC)c(OC)c(OC)c2)ccc1Oc1nc2c(c(=O)n(C)c(=O)n2C)n1C
value observed: 13.5 µM

compound: N#CC(C#N)=C/C=C(\Sc1ccc(F)c(Cl)c1)c1ccc(Cl)cc1
value observed: 28.2 µM

compound: Cc1ccc(S(=O)(=O)O/N=C2\CCC\C2=C/c2ccccc2)cc1
value observed: > 100 µM

compound: Cc1ccc(C[N+](C)(C)N)cc1C
value observed: > 10 µM

* * *

- System: SF-539 CNS
- experimental details: NCI tumour cell line growth inhibition, 48 h
Recorded TGI by entry
endpoint name: TGI

compound: CC(C)(C)c1[nH]nc2c1C(c1cc3ccccc3[nH]c1=O)Nc1cc(C(=O)Nc3ccc(Cl)cc3)ccc1N2 (stereo unspecified)
measured target: SF-539 CNS
value observed: 6.49 µM

compound: O=C1OCC2=C1C(c1cccc(F)c1)c1cc3c(cc1N2CCO)CCC3 (stereo unspecified)
measured target: SF-539 CNS
value observed: 0.434 µM

compound: CCNC(=S)NNC(=O)c1nsc2ccccc12
measured target: SF-539 CNS
value observed: > 100 µM

compound: Cn1cc(C2=C(Sc3ccccc3)C(=O)NC2=O)c2ccccc21
measured target: SF-539 CNS
value observed: > 25 µM

compound: COC(=O)[C@@H](Nc1ccccc1)[C@@]1(C(=O)OC)SC12c1ccccc1-c1ccccc12
measured target: SF-539 CNS
value observed: > 100 µM

compound: O=c1c2cc(I)ccc2nc(-c2cccs2)n1-c1ccc(S(=O)(=O)Nc2nccs2)cc1
measured target: SF-539 CNS
value observed: 44.5 µM

compound: O=[N+]([O-])C(=C1NCCN1)/C(Cl)=C(/Cl)N1CCOCC1
measured target: SF-539 CNS
value observed: > 100 µM

compound: C=C1C(=O)OC2C1CC[C@H](C)C1(O)C(O)CC(=O)[C@@]21C (stereo partly specified)
measured target: SF-539 CNS
value observed: 40.3 µM

compound: CN1CC[C@]2(C)c3c(O)cccc3CC3CCCC1C32C (stereo partly specified)
measured target: SF-539 CNS
value observed: > 100 µM

compound: O=S(=O)(O)c1ccc(N=Nc2ccc(N=Nc3c(O)ccc4cc(S(=O)(=O)O)ccc34)cc2)cc1
measured target: SF-539 CNS
value observed: > 100 µM

compound: COc1cc2c(cc1O)N=C[C@@H]1C[C@@H](F)CN1C2=O
measured target: SF-539 CNS
value observed: 4.32 µM

compound: CCOC1CN(C)C(=Nc2cccc3ccccc23)S1 (stereo unspecified)
measured target: SF-539 CNS
value observed: > 10 µM

compound: CNC(=O)CCC(NC(=O)OC(C)(C)C)C(=O)NC(Cc1ccc(NC(=O)CCCCC(C)=O)cc1)C(=O)NCC(=O)NC (stereo unspecified)
measured target: SF-539 CNS
value observed: > 100 µM

compound: COc1ccc(-c2cc(=O)c3c(O)c(OC)c(O)c(OC)c3o2)cc1OC
measured target: SF-539 CNS
value observed: > 100 µM

compound: O=C1C=Cc2cscc21
measured target: SF-539 CNS
value observed: > 100 µM

compound: O=C1c2ccccc2-c2c1c1ccccc1c(=O)n2-c1cccnc1
measured target: SF-539 CNS
value observed: > 71.1 µM

compound: CN(C)c1ccc2nc3ccc(=N)cc-3sc2c1
measured target: SF-539 CNS
value observed: 5.12 µM

compound: COc1ccc(C(OCC2OC(n3cnc4c(=O)n(Cc5ccccc5[N+](=O)[O-])nnc43)C(O)C2O)(c2ccccc2)c2ccc(OC)cc2)cc1 (stereo unspecified)
measured target: SF-539 CNS
value observed: 34.1 µM

compound: CCN(CC)c1ccc(N=O)cc1
measured target: SF-539 CNS
value observed: 10.1 µM

compound: CC1=C(C(=O)CC(=O)C(=O)Nc2cccc(Cl)c2C)Sc2ccccc2N1
measured target: SF-539 CNS
value observed: > 100 µM

compound: O=C(O)c1ccccc1SCc1cccc2c(=O)c3ccc(Cl)cc3oc12
measured target: SF-539 CNS
value observed: > 50 µM
